# method: Nuclear factor erythroid 2-related factor 2/antioxidant responsive element (Nrf2/ARE) small molecule agonists: luciferase reporter gene qHTS assay in human keratinocytes (AID 1919969); further: nearly all actives have a fitted effect of over 35% in size
# experimental.setup: KeratinoSens HaCaT ARE-luciferase, luminescence, 24 h; series mostly up to 92.4 µM
Records with an inconclusive call do not appear. Calls of active or inactive are those of the source. The call rests on the fitted dose curve.
readout.type: outcome

1. C#CCOC(=O)[C@@H](C)Oc1ccc(Oc2ncc(Cl)cc2F)cc1 inactive
2. COc1cc(C)ccc1O inactive
3. CCC(C)(C)C(=O)O inactive

* * *

# method: Nuclear factor erythroid 2-related factor 2/antioxidant responsive element (Nrf2/ARE) small molecule agonists: qHTS cell viability counter screen in human keratinocytes (AID 1919968); further: nearly all actives have a fitted effect of over 55% in size
# experimental.setup: KeratinoSens HaCaT ARE cells viability, CellTiter-Fluor, 24 h; series mostly up to 92.4 µM
Results filed as inconclusive are left out. Active and inactive are the calls of the source. The call rests on the fitted dose curve; in most records, active means well fitted cell-killing curve with a large enough effect in the repeat runs; inconclusive means weak or mixed curves, or effect the other way; inactive means flat fitted curve, though single readings scatter.
# output must be one of label 1 for active, label 0 for inactive

Solved cases (5 shown):
compound	answer.label
CCOC(=O)COC(=O)c1ccccc1C(=O)OCC	label 0
O=S(=O)(Cl)c1c(Cl)cccc1Cl	label 0
Nc1ccc(S(=O)(=O)O)c(N)c1	label 0
O=c1c2ccccc2nnn1CCl	label 0
CO[C@H]1C=CO[C@@]2(C)Oc3c(C)c(O)c4c(O)c(cc(O)c4c3C2=O)NC(=O)/C(C)=C\C=C/[C@H](C)[C@H](O)[C@@H](C)[C@@H](O)[C@@H](C)[C@H](OC(C)=O)[C@@H]1C	label 1

// query Field: outcome | Entry: O=[N+]([O-])c1cccc(I)c1
// result label 0

// query Field: outcome | Entry: CN1C(=O)OC(C)(C)C1=O
// result label 0

// query Field: outcome | Entry: CCC(C)COC(=O)CC(C)C (stereo not given)
// result label 0

// query Field: outcome | Entry: C=CC/C=C/C
// result label 0

// query Field: outcome | Entry: CCCCC(CC)COC(=O)c1ccccc1O (stereo not given)
// result label 0

// query Field: outcome | Entry: CC(C)(C)N(CCO)CCO
// result label 0

// query Field: outcome | Entry: CC(=O)OCC(C)C
// result label 0

// query Field: outcome | Entry: CC(=O)OC1CCCCC1
// result label 0

// query Field: outcome | Entry: COc1ccccc1N1CCN(CC(O)COc2cc(OC)c(OC)c(OC)c2)CC1 (stereo not given)
// result label 0

// query Field: outcome | Entry: CCCCCCCCCC[N+](C)(C)[O-]
// result label 0

// query Field: outcome | Entry: CCOC(=O)C1=NOC(c2ccccc2)(c2ccccc2)C1
// result label 0

// query Field: outcome | Entry: Nc1ccc(S(=O)(=O)Nc2ccccc2)cc1
// result label 0

// query Field: outcome | Entry: CCOC(=O)CCCCCCCCC(=O)OCC
// result label 0

// query Field: outcome | Entry: O=C1c2cccc(O)c2C(=O)c2c(O)cc(CO)cc21
// result label 0

// query Field: outcome | Entry: COc1ccc(CCC(=O)c2c(O)cc(O[C@@H]3O[C@H](CO)[C@@H](O)[C@H](O)[C@H]3O[C@@H]3O[C@@H](C)[C@H](O)[C@@H](O)[C@H]3O)cc2O)cc1O
// result label 0

// query Field: outcome | Entry: C=CCOc1c(Br)cc(Br)cc1Br
// result label 0
